Origin of the recorded values: paper PMC9005681

- test_target: cloned human or rodent CNS receptors, channels, and transporters (PDSP panel) (Homo sapiens, UniProt P35367)
- Construct: expressed in transfected cells
- Sequence (P35367 whole entry): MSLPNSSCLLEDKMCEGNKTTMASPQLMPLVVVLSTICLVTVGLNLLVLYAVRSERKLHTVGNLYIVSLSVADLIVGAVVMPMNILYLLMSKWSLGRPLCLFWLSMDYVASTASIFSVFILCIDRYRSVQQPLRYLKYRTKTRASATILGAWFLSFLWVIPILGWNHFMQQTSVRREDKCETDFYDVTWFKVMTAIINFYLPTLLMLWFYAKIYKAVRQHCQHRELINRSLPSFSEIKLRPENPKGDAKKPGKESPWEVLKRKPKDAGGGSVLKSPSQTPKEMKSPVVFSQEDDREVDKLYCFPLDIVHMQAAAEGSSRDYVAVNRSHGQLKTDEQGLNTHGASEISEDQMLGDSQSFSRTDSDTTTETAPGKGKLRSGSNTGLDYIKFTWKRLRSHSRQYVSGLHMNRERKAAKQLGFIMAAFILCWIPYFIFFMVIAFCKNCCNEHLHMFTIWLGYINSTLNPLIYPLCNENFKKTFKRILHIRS
- assay_text: PDSP GPCR panel primary binding assays at 10 μM
- measurement_conditions: H1; primary assay, replicate 1
- Protocol: GPCR panel: Screening against the receptors within the PDSP panel offers an assessment of off-target pharmacological activity at cloned human or rodent CNS receptors, channels, and transporters that could confound CNS-related phenotypes. A total of 46–47 primary binding assays were run in quadruplicate on these compounds at 10 μM, with follow-up secondary binding assays in 11-point dose-response in triplicate for select compounds versus select receptors. […]
Recorded Inhibition 1 values for a group of compounds are listed next.
Write the number in % without appending the unit.

Requested read-out: Inhibition 1. Entry: CNc1nc(C)nc(N[C@H]2CCC[C@@H](C(=O)NCc3ccc(C#N)cc3C(F)(F)F)C2)n1 [UNC10302679A, GSK2256294A] 93.05

Others:
Give its Inhibition 1 value. Item: O=C(NC1CC1)C(=O)C(Cc1ccccc1)NC(=O)[C@H]1CCC(=O)N1Cc1ccccc1 (stereo partly shown) [UNC10302676A, ABT-957 (Alicapistat)] 60.11

Can you look up the measured Inhibition 1 of CCC(=O)N1CCC(NC(=O)Nc2ccc(OC(F)(F)F)cc2)CC1 [UNC10302681A, TPPU] for me? 97.51

Look at this compound and give its reported Inhibition 1. CC(=O)N1CCC(NC(=O)NC23CC4CC(CC(C4)C2)C3)CC1 [UNC10302683A, AR9281] 98.85

* * *

As shown below, each of these compounds has a reported Inhibition 4 value.
- test_target: cloned human or rodent CNS receptors, channels, and transporters (PDSP panel) (Homo sapiens, UniProt P47898)
- Construct: expressed in transfected cells
- Sequence (P47898 whole entry): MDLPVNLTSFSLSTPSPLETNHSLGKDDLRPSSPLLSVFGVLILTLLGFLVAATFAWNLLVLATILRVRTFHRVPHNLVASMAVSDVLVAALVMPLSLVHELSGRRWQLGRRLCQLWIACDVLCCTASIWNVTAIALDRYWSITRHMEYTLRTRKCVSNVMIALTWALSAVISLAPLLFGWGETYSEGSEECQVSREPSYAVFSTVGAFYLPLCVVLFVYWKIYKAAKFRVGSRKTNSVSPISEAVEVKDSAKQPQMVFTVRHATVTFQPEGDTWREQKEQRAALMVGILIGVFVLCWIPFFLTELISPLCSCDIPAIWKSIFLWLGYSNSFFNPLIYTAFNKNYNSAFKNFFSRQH
- assay_text: PDSP GPCR panel primary binding assays at 10 μM
- measurement_conditions: Receptor 5-HT5A; primary assay, 10 μM
Give the number first and the unit second.

Would you please look over these solved cases?
What value of measured Inhibition 4 is listed for CCCCNc1ncc2c(-c3ccc(CN4CCN(C)CC4)cc3)cn([C@H]3CC[C@H](O)CC3)c2n1 [UNC2025C, UNC2025] ? 29.74%

For O=c1oc2ccccc2cc1-c1cn2cc(Cc3ccc(F)cc3)sc2n1 [UNC10302680A, iMDK] , what is its reported Inhibition 4? -0.35%

Can you share its Inhibition 4? I mean this compound: c1cn2cc(-c3ccc4cn[nH]c4c3)nc(Nc3ccc(N4CCOCC4)cc3)c2n1 [UNC10302678A, Entospletinib (GS-9973)] -6.68%

Moving on to another compound below.
Request the reported Inhibition 4 associated with Cl.NC(=O)c1cnc(N[C@@H]2CCCC[C@@H]2N)nc1Nc1cccc(-n2nccn2)c1 [UNC10302682A, P505-15 (PRT06207 HCl)] 6.38%

* * *

Catalogue of Inhibition 3 values
- test_target: cloned human or rodent CNS receptors, channels, and transporters (PDSP panel) (Homo sapiens)
- Construct: expressed in transfected cells
- assay_text: PDSP GPCR panel primary binding assays at 10 μM
- measurement_conditions: Receptor 5-HT5A; primary assay, 10 μM
Answer by giving the amount and then stating its unit.

Below, each entry is followed by its recorded Inhibition 3 result.
Please give the measured Inhibition 3 for this compound: c1cn2cc(-c3ccc4cn[nH]c4c3)nc(Nc3ccc(N4CCOCC4)cc3)c2n1 [UNC10302678A, Entospletinib (GS-9973)] -3.12%

Need Inhibition 3 of CCCCNc1ncc2c(-c3ccc(CN4CCN(C)CC4)cc3)cn([C@H]3CC[C@H](O)CC3)c2n1 [UNC2025C, UNC2025] , thanks. 9.95%

What does the data say about its Inhibition 3? Entry: O=c1oc2ccccc2cc1-c1cn2cc(Cc3ccc(F)cc3)sc2n1 [UNC10302680A, iMDK] -6.28%

Below: the item to evaluate.
What value of measured Inhibition 3 is listed for Cl.NC(=O)c1cnc(N[C@@H]2CCCC[C@@H]2N)nc1Nc1cccc(-n2nccn2)c1 [UNC10302682A, P505-15 (PRT06207 HCl)] ? 4.4%

* * *

- test_target: cloned human or rodent CNS receptors, channels, and transporters (PDSP panel) (Homo sapiens)
- Construct: expressed in transfected cells
- assay_text: PDSP GPCR panel primary binding assays at 10 μM
- measurement_conditions: Receptor M3; primary assay, 10 μM
readout_name: Inhibition 3 (%)
Report the figure in % without appending any unit label.

For the compound shown here, CCCCNc1ncc2c(-c3ccc(CN4CCN(C)CC4)cc3)cn([C@H]3CC[C@H](O)CC3)c2n1 [UNC2025C, UNC2025] , give the reported Inhibition 3. -6.87

Look at this compound and give its reported Inhibition 3. c1cn2cc(-c3ccc4cn[nH]c4c3)nc(Nc3ccc(N4CCOCC4)cc3)c2n1 [UNC10302678A, Entospletinib (GS-9973)] 7.51

What does the data say about its Inhibition 3? Entry: O=c1oc2ccccc2cc1-c1cn2cc(Cc3ccc(F)cc3)sc2n1 [UNC10302680A, iMDK] 10.14

Moving on to another compound below.
Return reported Inhibition 3; argument: Cl.NC(=O)c1cnc(N[C@@H]2CCCC[C@@H]2N)nc1Nc1cccc(-n2nccn2)c1 [UNC10302682A, P505-15 (PRT06207 HCl)] 15.74

* * *

- Test system: cloned human or rodent CNS receptors, channels, and transporters (PDSP panel)
- assay_text: PDSP GPCR panel primary binding assays at 10 μM
- measurement_conditions: Receptor DOR; primary assay, 10 μM
readout_name: Inhibition 1 (%)
Quick reminder: number only, in %, skip the unit.

Known Inhibition 1 results, listed for orientation:
Data request, read-out Inhibition 1, for c1cn2cc(-c3ccc4cn[nH]c4c3)nc(Nc3ccc(N4CCOCC4)cc3)c2n1 [UNC10302678A, Entospletinib (GS-9973)] -7.03

Find the recorded Inhibition 1 belonging to CCCCNc1ncc2c(-c3ccc(CN4CCN(C)CC4)cc3)cn([C@H]3CC[C@H](O)CC3)c2n1 [UNC2025C, UNC2025] and report it. -5.58

Inhibition 1 for O=c1oc2ccccc2cc1-c1cn2cc(Cc3ccc(F)cc3)sc2n1 [UNC10302680A, iMDK] ? -22.02

More entries:
Recorded Inhibition 1 of Cl.NC(=O)c1cnc(N[C@@H]2CCCC[C@@H]2N)nc1Nc1cccc(-n2nccn2)c1 [UNC10302682A, P505-15 (PRT06207 HCl)] , please. -18.41

* * *

- test_target: cloned human or rodent CNS receptors, channels, and transporters (PDSP panel) (Homo sapiens, UniProt P20309)
- Construct: expressed in transfected cells
- Sequence (P20309 whole entry): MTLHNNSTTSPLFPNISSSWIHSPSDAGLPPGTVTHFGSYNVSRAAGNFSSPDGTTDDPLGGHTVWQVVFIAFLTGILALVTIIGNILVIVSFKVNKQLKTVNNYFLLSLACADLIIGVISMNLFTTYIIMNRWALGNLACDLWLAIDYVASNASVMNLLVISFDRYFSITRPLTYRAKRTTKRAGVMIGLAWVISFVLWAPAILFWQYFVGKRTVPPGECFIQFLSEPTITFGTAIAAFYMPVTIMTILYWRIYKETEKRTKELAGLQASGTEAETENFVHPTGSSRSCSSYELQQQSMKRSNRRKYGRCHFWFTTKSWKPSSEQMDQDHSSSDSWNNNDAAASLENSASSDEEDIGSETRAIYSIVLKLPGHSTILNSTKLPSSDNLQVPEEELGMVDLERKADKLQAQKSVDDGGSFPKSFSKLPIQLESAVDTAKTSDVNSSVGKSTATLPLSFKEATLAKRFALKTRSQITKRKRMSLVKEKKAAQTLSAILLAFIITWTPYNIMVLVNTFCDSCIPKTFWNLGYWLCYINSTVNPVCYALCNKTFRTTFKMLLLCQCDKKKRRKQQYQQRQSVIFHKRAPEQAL
- assay_text: PDSP GPCR panel primary binding assays at 10 μM
- measurement_conditions: Receptor M3; primary assay, 10 μM; mean of Inhibition 1-4
readout_name: Mean % (%)
Please reply with the bare figure in % and do not write the unit itself.

May I ask what Mean % has been recorded for O=c1oc2ccccc2cc1-c1cn2cc(Cc3ccc(F)cc3)sc2n1 [UNC10302680A, iMDK] ? 23.22

More entries:
Query: Mean %; subject: c1cn2cc(-c3ccc4cn[nH]c4c3)nc(Nc3ccc(N4CCOCC4)cc3)c2n1 [UNC10302678A, Entospletinib (GS-9973)] 13.04

Would you mind telling me what Mean % value was observed for CCCCNc1ncc2c(-c3ccc(CN4CCN(C)CC4)cc3)cn([C@H]3CC[C@H](O)CC3)c2n1 [UNC2025C, UNC2025] ? -4.31

Returns the measured Mean % for the input compound. Input: Cl.NC(=O)c1cnc(N[C@@H]2CCCC[C@@H]2N)nc1Nc1cccc(-n2nccn2)c1 [UNC10302682A, P505-15 (PRT06207 HCl)] 14.23

* * *

- test_target: cloned human or rodent CNS receptors, channels, and transporters (PDSP panel) (Homo sapiens, UniProt P21917)
- Construct: expressed in transfected cells
- Sequence (P21917 1-419): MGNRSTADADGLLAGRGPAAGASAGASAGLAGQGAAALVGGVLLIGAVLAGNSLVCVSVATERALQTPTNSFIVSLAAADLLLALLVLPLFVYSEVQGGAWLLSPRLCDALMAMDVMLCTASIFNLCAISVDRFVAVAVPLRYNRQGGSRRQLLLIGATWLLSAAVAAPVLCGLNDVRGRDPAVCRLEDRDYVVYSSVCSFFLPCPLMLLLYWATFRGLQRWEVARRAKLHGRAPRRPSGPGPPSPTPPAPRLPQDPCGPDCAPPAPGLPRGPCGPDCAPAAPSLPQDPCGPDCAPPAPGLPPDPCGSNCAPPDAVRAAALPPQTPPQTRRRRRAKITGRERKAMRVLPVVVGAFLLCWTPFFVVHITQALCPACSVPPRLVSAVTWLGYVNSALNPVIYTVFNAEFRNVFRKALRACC
- assay_text: PDSP GPCR panel primary binding assays at 10 μM
- measurement_conditions: Receptor D4; primary assay, 10 μM
Each entry below carries its recorded Inhibition 2.
Write the number in % without appending the unit.

The examples below pair each entry with its known result.
Item CCCCNc1ncc2c(-c3ccc(CN4CCN(C)CC4)cc3)cn([C@H]3CC[C@H](O)CC3)c2n1 [UNC2025C, UNC2025] has what recorded Inhibition 2? -16.35

Entry c1cn2cc(-c3ccc4cn[nH]c4c3)nc(Nc3ccc(N4CCOCC4)cc3)c2n1 [UNC10302678A, Entospletinib (GS-9973)] : reported Inhibition 2 = ? 7.36

# get_value(readout='Inhibition 2', item= O=c1oc2ccccc2cc1-c1cn2cc(Cc3ccc(F)cc3)sc2n1 [UNC10302680A, iMDK] ) -4.88

***
Looking for the measured Inhibition 2 of Cl.NC(=O)c1cnc(N[C@@H]2CCCC[C@@H]2N)nc1Nc1cccc(-n2nccn2)c1 [UNC10302682A, P505-15 (PRT06207 HCl)] , can you help? 12.14
